molecular target: human serum albumin (HSA) (Homo sapiens); assay: Relaxivity in the presence of 4.5% w/v HSA; conditions: 0.47T, 50 mM HEPES buffer pH 7.4, 37 °C
Sequence (P02768 25-609): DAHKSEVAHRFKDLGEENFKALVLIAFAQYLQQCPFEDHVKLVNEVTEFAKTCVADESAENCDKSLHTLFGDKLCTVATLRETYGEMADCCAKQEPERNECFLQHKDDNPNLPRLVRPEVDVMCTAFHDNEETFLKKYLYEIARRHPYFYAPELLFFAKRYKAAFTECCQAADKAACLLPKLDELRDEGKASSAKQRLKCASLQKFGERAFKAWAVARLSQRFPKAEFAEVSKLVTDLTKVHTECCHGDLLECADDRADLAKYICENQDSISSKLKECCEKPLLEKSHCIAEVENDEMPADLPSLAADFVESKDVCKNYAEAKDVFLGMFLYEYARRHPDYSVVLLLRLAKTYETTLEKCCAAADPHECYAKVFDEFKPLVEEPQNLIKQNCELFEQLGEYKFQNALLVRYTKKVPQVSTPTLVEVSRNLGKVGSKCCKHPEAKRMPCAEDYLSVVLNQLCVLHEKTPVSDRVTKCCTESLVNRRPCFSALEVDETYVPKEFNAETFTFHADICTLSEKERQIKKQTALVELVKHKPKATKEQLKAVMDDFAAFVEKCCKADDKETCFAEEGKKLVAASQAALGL
Label Fulfilled when r1^obs 4.5% HSA is strictly below 20 mM⁻¹ s⁻¹; otherwise label Not fulfilled.

1. C[C@H](NC(=O)C(N)CN1CCN(CC(=O)O)CCN(CC(=O)O)CCN(CC(=O)O)CC1)c1ccccc1 (some centres unmarked)    Fulfilled
2. COC(=O)CNC(=O)C(CN1CCN(CC(=O)O)CCN(CC(=O)O)CCN(CC(=O)O)CC1)NC(=O)C(N)Cc1cc(I)c(O)c(I)c1 (centres unmarked)    Not fulfilled
3. C[C@H](NC(=O)C(CN1CCN(CC(=O)O)CCN(CC(=O)O)CCN(CC(=O)O)CC1)NC(=O)C(N)Cc1cc(I)c(O)c(I)c1)c1ccccc1 (single isomer, unassigned) [Gd(6a)]    Fulfilled
4. C[C@H](NC(=O)C(CN1CCN(CC(=O)O)CCN(CC(=O)O)CCN(CC(=O)O)CC1)NC(=O)C(N)Cc1cc(I)c(O)c(I)c1)c1ccccc1 (single isomer, unassigned) [Gd(6b)]    Fulfilled

Let's switch to this compound now.
Decide: r1^obs 4.5% HSA of NC(Cc1cc(I)c(O)c(I)c1)C(=O)NC(CN1CCN(CC(=O)O)CCN(CC(=O)O)CCN(CC(=O)O)CC1)C(=O)O (centres unmarked) strictly below 20 mM⁻¹ s⁻¹?
Not fulfilled

====

Here, each record is paired with measured % bound to 4.5% HSA data.
target: human serum albumin (HSA) (Homo sapiens); test: Ultrafiltration assay of binding to HSA; details: 0.1 mM probe, 4.5% w/v HSA in 50 mM HEPES, ultrafiltration
Dear colleague, please return just the value in %, with no unit written.

1) C[C@H](NC(=O)C(CN1CCN(CC(=O)O)CCN(CC(=O)O)CCN(CC(=O)O)CC1)NC(=O)C(N)Cc1cc(I)c(O)c(I)c1)c1ccccc1 (single isomer, unassigned) [Gd(6b)]    39
2) C[C@H](NC(=O)C(CN1CCN(CC(=O)O)CCN(CC(=O)O)CCN(CC(=O)O)CC1)NC(=O)C(N)Cc1cc(I)c(O)c(I)c1)c1ccccc1 (single isomer, unassigned) [Gd(6a)]    34
3) C[C@H](NC(=O)C(N)CN1CCN(CC(=O)O)CCN(CC(=O)O)CCN(CC(=O)O)CC1)c1ccccc1 (some centres unmarked) [Gd(2)]    7
4) COC(=O)CNC(=O)C(CN1CCN(CC(=O)O)CCN(CC(=O)O)CCN(CC(=O)O)CC1)NC(=O)C(N)Cc1cc(I)c(O)c(I)c1 (centres unmarked) [Gd(5)]    25

Moving on to another compound below.
For NC(Cc1cc(I)c(O)c(I)c1)C(=O)NC(CN1CCN(CC(=O)O)CCN(CC(=O)O)CCN(CC(=O)O)CC1)C(=O)O (centres unmarked) [Gd(4)] the compound record lists % bound to 4.5% HSA as 20

====

target: human serum albumin (HSA) (Homo sapiens); experiment: Relaxivity in the presence of 4.5% w/v HSA; details: 1.41T, 50 mM HEPES buffer pH 7.4, 37 °C
Label Y when r1^obs 4.5% HSA is strictly below 10 mM⁻¹ s⁻¹; otherwise label N.

Below, 2 molecules whose answers are already recorded.
1. C[C@H](NC(=O)C(N)CN1CCN(CC(=O)O)CCN(CC(=O)O)CCN(CC(=O)O)CC1)c1ccccc1 (some centres unmarked)    Y
2. NC(Cc1cc(I)c(O)c(I)c1)C(=O)NC(CN1CCN(CC(=O)O)CCN(CC(=O)O)CCN(CC(=O)O)CC1)C(=O)O (centres unmarked)    N

Decide: r1^obs 4.5% HSA of C[C@H](NC(=O)C(CN1CCN(CC(=O)O)CCN(CC(=O)O)CCN(CC(=O)O)CC1)NC(=O)C(N)Cc1cc(I)c(O)c(I)c1)c1ccccc1 (single isomer, unassigned) [Gd(6b)] strictly below 10 mM⁻¹ s⁻¹?
N

Decide: r1^obs 4.5% HSA of C[C@H](NC(=O)C(CN1CCN(CC(=O)O)CCN(CC(=O)O)CCN(CC(=O)O)CC1)NC(=O)C(N)Cc1cc(I)c(O)c(I)c1)c1ccccc1 (single isomer, unassigned) [Gd(6a)] strictly below 10 mM⁻¹ s⁻¹?
N

Decide: r1^obs 4.5% HSA of COC(=O)CNC(=O)C(CN1CCN(CC(=O)O)CCN(CC(=O)O)CCN(CC(=O)O)CC1)NC(=O)C(N)Cc1cc(I)c(O)c(I)c1 (centres unmarked) strictly below 10 mM⁻¹ s⁻¹?
N
